Each entry below lists one item and its recorded protein stability index value.
Test system: Saccharomyces cerevisiae
Assay: protein stability index of tFT-peptide fusion (C-terminal peptide) (PSI (0-1 scale)); higher = more stable (slower turnover)
Details: genetic background: das1 deletion; temperature: 30 C

* RREATRISDLLK [FMS1 C-terminal 12 aa] | 0.695
* REAKNLPKPSFL [EDC1 C-terminal 12 aa] | 0.702
* LKLNHSFATIFK [MCM21 C-terminal 12 aa] | 0.684
* FWNCVDGHLKYD [INM1 C-terminal 12 aa] | 0.724
* RVGQTNSPSDSQ [DFM1 C-terminal 12 aa] | 0.706

Now turn to the next sequence.
Return protein stability index for the following sequence: RWHIQRITSPLS [STP22 C-terminal 12 aa]
0.74

====

System: Saccharomyces cerevisiae
Test: protein stability index of tFT-peptide fusion (C-terminal peptide) (PSI (0-1 scale)); higher = more stable (slower turnover)
Settings: genetic background: wild type; temperature: 30 C
Value Kind: protein stability index
Give the figure only, with no unit attached.

• VLLCASPMLAVV = 0.297

Consider the sequence SCFDRQIFVPVC . State its measured protein stability index.
0.308

Return protein stability index for the following sequence: YPSCPINFICLC
0.308

Tell me measured protein stability index for LLFLLSPFNFAV please.
0.303

Item SISVQCSMLRVL : provide protein stability index
0.294

// Input: YFYIRLGIAYMM . Output its protein stability index only.
0.206

Please give measured protein stability index of the following entry: FVLLTFLFFWQF
0.299

====

// reported protein stability index per item
Test system: Saccharomyces cerevisiae
Test: protein stability index of tFT-peptide fusion (C-terminal peptide) (PSI (0-1 scale)); higher = more stable (slower turnover)
Conditions: genetic background: das1 deletion; temperature: 30 C
In your answer, state the number alone without any accompanying words.

* KSAKATKASQEL [HTA1 C-terminal 12 aa] | 0.691
* AKFDGHAKTCHI [YBR051W C-terminal 12 aa] | 0.717
* SMGNYYKSFFSM [OMA1 C-terminal 12 aa] | 0.704
* YLIAVTNLVERE [PPT2 C-terminal 12 aa] | 0.682
* RELLKSLVLSHR [RSM23 C-terminal 12 aa] | 0.703

Specify reported protein stability index for the sequence shown: ATSITSLGVKRA [AUR1 C-terminal 12 aa]
0.702

Provide measured protein stability index value, entry: VADAMLDQGDVF [GDH3 C-terminal 12 aa]
0.714

====

Test system: Saccharomyces cerevisiae
Experiment: protein stability index of tFT-peptide fusion (C-terminal peptide) (PSI (0-1 scale)); higher = more stable (slower turnover)
Details: genetic background: wild type; temperature: 30 C
Value Kind: protein stability index
Answer with a bare number; do not write a unit.

Recall and state the measured protein stability index for KKKNKKNKKKAE .
0.691

Answer with the recorded protein stability index for the sequence listed here: GLRRTGRISGSV
0.7

Input GSAGYLCQCSDI , output reported protein stability index.
0.681

Please report protein stability index for the following sequence: GGVVLTWVGENC
0.704

====

System: Saccharomyces cerevisiae
Assay: protein stability index of tFT-peptide fusion (C-terminal peptide) (PSI (0-1 scale)); higher = more stable (slower turnover)
Details: genetic background: wild type; temperature: 30 C
Value Kind: protein stability index
Answer with a number only.

Consider the worked cases shown below.
• TVRFTHQRNTVK = 0.689
• PPPHTPLPPLAP = 0.744
• DLQTVGLTRFIV = 0.236
• SYRHHPTVPSTY = 0.705
• VLEVLKTGKKIM = 0.692
• GSGGGGGYVSGN = 0.69
• HPPPPPPPPSLS = 0.513
• WKQKRGTHNIKD = 0.722
• QFDRDCAWRPDV = 0.653

In the following, a different sequence is considered.
Tell me measured protein stability index for SSPSPCSRPLLL please.
0.711
